- Tested on: human glioma T98G cells
- assayProcedure: Time-dependent cellular uptake
- Assay type: cell-based
- assaySetup: 10 μM
measureName: cellular uptake at 24 h (nM/cell)

> print(dat)
                                  substance       experimentaltarget  reading
1  8-(1,2-Carboranyl-1-thio)-3-chloro-2-ethyl-1,3,6,7-tetramethyl-BODIPY [6b]  human glioma T98G cells     0.46
2  8-(1,2-Carboranyl-1-thio)-2-ethyl-1,3,6,7-tetramethyl-BODIPY [5b]  human glioma T98G cells      1.5
3  8-[4-(2-Methyl-1,2-carboranyl)methylphenyl]-BODIPY [compound 4]  human glioma T98G cells     0.41
4     8-(1,2-Carboranyl-1-thio)-BODIPY [1b]  human glioma T98G cells     0.23
5  8-(1,2-Carboranyl-1-thio)-1,3-dimethyl-BODIPY [2b]  human glioma T98G cells     0.36

###

- assayProcedure: Octanol–water partition coefficients
- Type: physicochemical
- assaySetup: 1-octanol/water partition, UV–vis absorbance
Each record here notes measured log P.
measureName: log P

> print(dat)
                                  substance  reading
1  8-(1,2-Carboranyl-1-thio)-1,3-dimethyl-BODIPY [2b]     1.69
2     8-(1,2-Carboranyl-1-thio)-BODIPY [1b]     1.50
3  8-(1,2-Carboranyl-1-thio)-3-chloro-2-ethyl-1,3,6,7-tetramethyl-BODIPY [6b]     1.93
4  8-[4-(2-Methyl-1,2-carboranyl)methylphenyl]-BODIPY [compound 4]     2.11
5  8-(1,2-Carboranyl-1-thio)-2-ethyl-1,3,6,7-tetramethyl-BODIPY [5b]     1.95
